Consider the following compounds; for each one, report its IC50.
targetEntity: CCR9 (Homo sapiens)
Construct: CCR9-expressing cells (such as a T cell line MOLT-4 cells)
Sequence (P51686 whole entry): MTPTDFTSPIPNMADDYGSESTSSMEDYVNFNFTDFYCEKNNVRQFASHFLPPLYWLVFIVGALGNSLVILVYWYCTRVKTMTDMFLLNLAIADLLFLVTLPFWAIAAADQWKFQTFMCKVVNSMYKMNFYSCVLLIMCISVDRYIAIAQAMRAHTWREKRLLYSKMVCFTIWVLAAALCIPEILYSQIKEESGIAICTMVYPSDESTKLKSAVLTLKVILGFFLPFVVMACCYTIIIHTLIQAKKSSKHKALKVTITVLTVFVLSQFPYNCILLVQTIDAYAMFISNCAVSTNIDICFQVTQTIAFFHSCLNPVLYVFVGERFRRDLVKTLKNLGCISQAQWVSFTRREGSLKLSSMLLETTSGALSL
assayDetails: chemotaxis (conventional migration) assay and/or calcium mobilization (calcium flux) assay, TECK-stimulated MOLT-4 cells
testContext: TECK-induced migration and/or calcium signal, read-out: activity (IC50) in either or both of the chemotaxis assay and calcium mobilization assays

Lookup: // IC50 lookup, key: CC(=O)Nc1ccc(S(=O)(=O)Nc2ccc(Cl)cc2C(=O)c2ccccc2)cc1
Found: 100 to 1000 nM

Lookup: // IC50 lookup, key: COc1ccc(S(=O)(=O)Nc2ccc(F)cc2C(=O)c2ccccc2)cc1
Found: < 100 nM

Lookup: // IC50 lookup, key: CC(C)(C)c1ccc(S(=O)(=O)Nc2ccc(Br)cc2C(=O)c2ccccc2)cc1
Found: < 100 nM

Lookup: // IC50 lookup, key: O=C(c1ccccc1)c1cc(Cl)ccc1NS(=O)(=O)c1ccc(OC(F)(F)F)cc1
Found: < 100 nM

Lookup: // IC50 lookup, key: CCc1ccc(S(=O)(=O)Nc2ccc(Br)cc2C(=O)c2ccccc2)cc1
Found: < 100 nM

Lookup: // IC50 lookup, key: COc1ccc(S(=O)(=O)Nc2ccc(Cl)cc2C(=O)c2ccccc2)cc1 [drawing 93]
Found: < 100 nM

Lookup: // IC50 lookup, key: CC(C)(C)c1ccc(S(=O)(=O)Nc2ccc(Cl)cc2C(=O)c2ccccc2)cc1
Found: < 100 nM

Lookup: // IC50 lookup, key: O=C(c1ccccc1)c1cc(Cl)ccc1NS(=O)(=O)c1ccc(Br)cc1
Found: 100 to 1000 nM

Lookup: // IC50 lookup, key: CC(C)(C)c1ccc(S(=O)(=O)Nc2ccc(Cl)cc2C(=O)c2ccc(F)cc2)cc1
Found: 100 to 1000 nM
